Reported activation at 0.3 µM values follow for various compounds
Target: 5-HT2B (Homo sapiens)
Test: IPOne (IP1 HTRF) assay, CHO-K1 cells expressing human 5-HT2B
Format: cell-based
Set-up: expressed in transfected cells; host or cells: CHO-K1
Settings: CHO-K1; @0.3 uM; percentage of reference agonist α-Me-5-HT at its EC100
Respond with the bare value in %.

CC(C)OC(=O)[C@@H]1CCCN1CCc1c[nH]c2ccccc12: 37.7
COC(=O)[C@@H]1CCCN1CCc1c[nH]c2ncccc12: -0.22

Which measured activation at 0.3 µM value corresponds to OC[C@@H]1CCCN1CCc1c[nH]c2ncccc12 ? 1.09

# lookup: activation at 0.3 µM of NCC1CCCN1CCc1c[nH]c2ccccc12 (centres unmarked) 20

I would be grateful if you could share the reported activation at 0.3 µM for COc1cccc2[nH]cc(CCN3CCC[C@H]3CO)c12 . 62

---

Target: 5-HT2A (Homo sapiens, UniProt P28223)
Sequence (P28223 whole entry): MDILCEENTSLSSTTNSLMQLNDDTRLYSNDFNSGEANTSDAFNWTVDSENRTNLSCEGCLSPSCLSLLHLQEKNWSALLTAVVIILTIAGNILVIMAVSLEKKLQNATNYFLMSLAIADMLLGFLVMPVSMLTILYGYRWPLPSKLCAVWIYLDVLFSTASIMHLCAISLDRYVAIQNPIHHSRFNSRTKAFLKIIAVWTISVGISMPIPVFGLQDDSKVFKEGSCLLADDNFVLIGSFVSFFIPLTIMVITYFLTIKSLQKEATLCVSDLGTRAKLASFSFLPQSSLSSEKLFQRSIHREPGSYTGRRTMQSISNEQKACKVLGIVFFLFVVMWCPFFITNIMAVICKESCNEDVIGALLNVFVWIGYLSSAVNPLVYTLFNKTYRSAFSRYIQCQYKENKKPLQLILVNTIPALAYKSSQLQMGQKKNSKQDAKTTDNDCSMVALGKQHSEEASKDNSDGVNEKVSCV
Experiment: IPOne (IP1 HTRF) assay, CHO-K1 cells expressing human 5-HT2A
Format: cell-based
Parameters: expressed in transfected cells; host or cells: CHO-K1
Details: CHO-K1; @30 uM; percentage of reference agonist α-Me-5-HT at its EC100
So basically: activation at 30 µM at 80% or higher? That is class 1. Lower than 80%? That is class 0.

A selection of reference data follows.
OC[C@@H]1CCCN1CCc1c[nH]c2ccc(O)cc12 [Compound 51]: class 1
OCC1CCCN1CCc1c[nH]c2ccccc12 (stereo not shown) [Compound 3]: class 1
OCC1CCCN1CCc1c(Br)[nH]c2ccc(F)cc12 (stereo not shown) [Compound 69]: class 1
OC[C@H]1CCCN1CCc1c[nH]c2ccccc12 [Compound 32]: class 0
CC[C@H](O)[C@@H]1CCCN1CCc1c[nH]c2ccccc12 [Compound 78]: class 0
OC[C@@H]1CCCN1CCc1c[nH]c2cccc(O)c12 [Compound 49]: class 1
COC(=O)[C@H]1CCCN1CCc1c[nH]c2ccccc12 [Compound 34]: class 0
OC[C@@H]1CCCN1CCc1c[nH]c2ncccc12 [Compound 95]: class 1

Exam item: decide whether the reported activation at 30 µM for OC[C@@H]1CCCN1CCc1c[nH]c2ccc(F)cc12 [Compound 59] is at least 80%. class 1

Say whether CC(C)(O)[C@@H]1CCCN1CCc1c[nH]c2ccccc12 [Compound 74] shows activation at 30 µM of 80% or more. class 1

---

Catalogue of EC50 readings, one per entry.
Biological target: 5-HT2B (Homo sapiens, UniProt P41595)
Sequence (P41595 whole entry): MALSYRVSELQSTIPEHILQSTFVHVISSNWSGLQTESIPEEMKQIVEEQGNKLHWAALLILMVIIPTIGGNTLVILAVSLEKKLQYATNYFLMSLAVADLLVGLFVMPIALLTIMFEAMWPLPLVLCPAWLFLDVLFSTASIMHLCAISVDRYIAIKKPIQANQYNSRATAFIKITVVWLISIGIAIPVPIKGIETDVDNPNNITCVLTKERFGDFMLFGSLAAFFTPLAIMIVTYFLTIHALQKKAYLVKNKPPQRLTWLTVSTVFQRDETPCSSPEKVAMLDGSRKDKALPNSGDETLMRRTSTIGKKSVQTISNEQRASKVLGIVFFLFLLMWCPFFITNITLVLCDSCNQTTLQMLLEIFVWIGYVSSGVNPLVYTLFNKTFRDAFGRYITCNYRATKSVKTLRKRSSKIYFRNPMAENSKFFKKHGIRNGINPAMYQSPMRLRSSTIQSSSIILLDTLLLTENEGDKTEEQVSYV
Assay: Calcium mobilization (Ca++ flux) assay, agonist mode, 5-HT2B
Format: cell-based
Details: agonist mode

COC(=O)C1CCCN1CCc1c[nH]c2ccccc12 (centres unmarked) [Compound 1, methyl (2-(1H-indol-3-yl)ethyl)prolinate]: > 30 µM

Record request: EC50 value, item OCC1CCCN1CCc1c[nH]c2ccccc12 (centres unmarked) [Compound 3] > 30 µM

---

pEC50 overview
Molecular target: 5-HT2B (Homo sapiens, UniProt P41595)
Test: IPOne (IP1 HTRF) assay, CHO-K1 cells expressing human 5-HT2B
Format: cell-based
Set-up: expressed in transfected cells; host or cells: CHO-K1
Conditions: CHO-K1, human 5-HT2B
Keep in mind that pEC50 stands for -log10 of concentration in molar terms.

C[C@H](O)[C@@H]1CCCN1CCc1c[nH]c2ccccc12 [Compound 73]: 6.02
CCOC(=O)[C@@H]1CCCN1CCc1c[nH]c2ccccc12 [Compound 52]: 5.59
OC[C@@H]1CCCN1CCc1c[nH]c2ccc(O)cc12 [Compound 51]: 7.06
CC(C)OC(=O)[C@@H]1CCCN1CCc1c[nH]c2ccccc12 [Compound 55]: 5.98
OC[C@@H]1CCCN1CCc1c[nH]c2cccc(O)c12 [Compound 49]: 7.36

Item under review: OC[C@@H]1CCCN1CCc1c[nH]c2ccc(F)cc12 [Compound 59] . Reported pEC50? 8.05

Would you kindly share the measured pEC50 for OC[C@@H]1CCN1CCc1c[nH]c2ccccc12 [Compound 54] ? 6.11

May I ask what pEC50 has been recorded for CC(C)(O)[C@@H]1CCCN1CCc1c[nH]c2ccccc12 [Compound 74] ? 6.28

I'd like to know its pEC50. The molecule in question is COc1ccc2[nH]cc(CCN3CCC[C@H]3CO)c2c1 [Compound 50] 8.06

Would you kindly share the measured pEC50 for OC[C@@H]1CCCN1CCc1c[nH]c2ccc(OC(F)(F)F)cc12 [Compound 61] ? 7.24
